Molecular target: BKV serotype IV chimeric infectious virus (VP1 of strain ITA-4) (BK virus serotype IV)
Assay: cell-based or functional assay
measuredAttribute: neutralization EC90 (µg/mL)
The response must be a number in µg/mL with no trailing unit.

Please review the following examples before continuing.
INSERT INTO results (binder, measuredattribute, resultvalue) VALUES
  ('NEG447 (antibody, human IgG1, lambda, V domains shown) VH: QVQLQESGPGLVKPSETLSLTCTVSGGSISRDYWSWVRQPPGAGLEWIGNIYYSGSTNYNPSLKSRVTISVATNKKQFSLKLTSVTAADTAVYYCARVPGCSSTSCIDGWFDPWGQGILVTVSS VL: QSVLTQPPSLSAAPGQKVTISCSGSSSNIGNTYVSWYQQLPGTAPKLLIYDNNKRPSGIPDRFSGSKSGTSATLGITGLQTGDEAVYYCGTWDSSLSAWVFGGGTRLTVLG', 'neutralization EC90', 0.34),
  ('NEG447A (antibody, human IgG1, lambda, V domains shown) VH: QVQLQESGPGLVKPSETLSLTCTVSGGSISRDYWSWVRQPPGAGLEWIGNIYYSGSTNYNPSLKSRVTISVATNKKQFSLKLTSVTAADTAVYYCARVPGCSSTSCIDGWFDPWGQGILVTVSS VL: QSVLTQPPSVSAAPGQKVTISCSGSSSNIGNTYVSWYQQLPGTAPKLLIYDNNKRPSGIPDRFSGSKSGTSATLGITGLQTGDEADYYCGTWDSSLSAWVFGGGTRLTVLG', 'neutralization EC90', 0.26);

Would you kindly look at the next entry?
Look at this binder and give its reported neutralization EC90. P8D11B (antibody, V domains shown) VH: QVQLVESGGTLVQPGGSLRLSCAASGFTFKNYWMTWVRQAPGKGLEWVANIKKDGSEKYYVDSVRGRFTISRDNAKNSLFLQMNSLRPEDTAVYFCATVRSGRYFALDDWGQGTLVTVSS VL: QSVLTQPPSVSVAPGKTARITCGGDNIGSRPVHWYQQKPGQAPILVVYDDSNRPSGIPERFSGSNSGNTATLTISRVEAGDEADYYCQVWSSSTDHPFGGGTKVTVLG 0.54
